B1: tRNA (parent)
chain: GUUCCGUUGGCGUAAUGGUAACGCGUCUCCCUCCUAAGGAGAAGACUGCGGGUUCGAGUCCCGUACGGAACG

Variants of: B1
assay: yeast fitness relative to wild type (ratio to wild type); higher = fitter; tRNA-Arg(CCU), competitive growth, 37 C, YPD
Variants at the floor of the assay were thinned out.
Threshold check on yeast fitness: at or above 0.8 gives condition met, strictly below gives condition not met.

Request: # bool: yeast fitness of U2C A14G G18A A70C >= 0.8
Response: condition not met

Request: Could you verify whether the entry U7C U13A C24U G50U G51A U59A A65C shows yeast fitness of no less than 0.8?
Response: condition not met

Request: Answer whether yeast fitness of A14G C29G C31U A70G is greater than or equal to 0.8.
Response: condition not met

Request: Please check the record C29G U47C and state if its yeast fitness is at or above 0.8.
Response: condition not met

Request: Identify whether the reported yeast fitness of the following variant is 0.8 or greater: A15G A57G
Response: condition met

Request: Record C24A C30U ; criterion: yeast fitness no lower than 0.8. Met?
Response: condition not met

Request: yeast fitness >= 0.8 for C11U C22U U54C G56C G58A ?
Response: condition not met

Request: Test whether the variant A20U C60U A69U records yeast fitness of 0.8 or higher.
Response: condition not met

Request: Is it the case that G23A C29G A45U C62U has yeast fitness reaching or exceeding 0.8?
Response: condition not met

Request: Has C34U A36C U53C G67A a recorded yeast fitness greater than or equal to 0.8?
Response: condition not met

Request: Could you verify whether the entry C11U G63A shows yeast fitness of no less than 0.8?
Response: condition met

Request: Say whether U19A C24G C27U C30A A36G G52C shows yeast fitness of 0.8 or more.
Response: condition not met

Request: Quick check: does G23U U32A U53A C55G have yeast fitness greater than or equal to 0.8?
Response: condition not met

Request: Could you tell me if the measured yeast fitness of U8A C34U G67A A69G reaches 0.8 or more?
Response: condition not met

Request: API: above_or_equal(metric=yeast fitness, cutoff=0.8) for item U3C G25U U64G
Response: condition not met

Request: # check: yeast fitness of C4G C60G is greater than or equal to 0.8
Response: condition not met

Request: Assess whether reported yeast fitness for C11U A21C C27G G39C A57C G68U sits at 0.8 or higher.
Response: condition not met

Request: Assess whether reported yeast fitness for G10A C62U sits at 0.8 or higher.
Response: condition met

Request: Is yeast fitness at least 0.8? Consider A14G U64C
Response: condition met

Request: // inclusive: yeast fitness at least 0.8? input: C31A A42G
Response: condition not met

Request: Could you verify whether the entry U16G C66U shows yeast fitness of no less than 0.8?
Response: condition met

Request: Does the reported yeast fitness for U28A C31A G44A fall at or above the 0.8 mark?
Response: condition not met
